Catalogue of inhibition at 100 µM readings, one per entry.
measurement.target: porcine pancreatic lipase (Sus scrofa)
Construct: gene PNLIP
Sequence (P00591 whole entry): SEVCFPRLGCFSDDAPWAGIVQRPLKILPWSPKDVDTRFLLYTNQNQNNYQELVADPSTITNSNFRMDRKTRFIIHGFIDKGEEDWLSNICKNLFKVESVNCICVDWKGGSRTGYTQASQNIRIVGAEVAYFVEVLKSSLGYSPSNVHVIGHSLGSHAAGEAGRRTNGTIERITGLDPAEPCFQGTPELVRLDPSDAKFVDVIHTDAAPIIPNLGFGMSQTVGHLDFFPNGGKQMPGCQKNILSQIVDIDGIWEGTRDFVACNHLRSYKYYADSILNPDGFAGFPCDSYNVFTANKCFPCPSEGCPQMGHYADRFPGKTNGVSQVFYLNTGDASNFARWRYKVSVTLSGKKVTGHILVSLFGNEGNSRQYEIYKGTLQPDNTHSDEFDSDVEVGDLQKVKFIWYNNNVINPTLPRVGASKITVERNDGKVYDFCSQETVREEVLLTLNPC
assay.protocol: p-nitrophenyl butyrate hydrolysis assay, % inhibition at […]
Assay type: biochemical

>>> df
                                   compound                      measurement_target          test_readout  endpoint_result
0  CC1(C)C=Cc2c(cc(O)c3c(=O)c(-c4ccc(O)cc4)coc23)O1 [compound 17, derrone]  porcine pancreatic lipase (Sus scrofa)  inhibition at 100 µM            68.2%
1  CC1(C)C=Cc2c(cc3occ(-c4ccc(O)c(O)c4)c(=O)c3c2O)O1 [compound 15]  porcine pancreatic lipase (Sus scrofa)  inhibition at 100 µM            > 50%

From here, focus on the item given below.
The compound identified as CC(C)=CCc1c2c(c(O)c3c(=O)c(-c4ccc(O)cc4)coc13)C=CC(C)(C)O2 [compound 16, scandenone] registered its inhibition at 100 µM at > 50%
